B1: MTMR15 (parent)
chain: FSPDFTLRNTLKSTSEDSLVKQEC

variants of: B1; test: protein stability index of a GFP-peptide fusion (GPS, HEK-293T) (PSI 1-6); higher = more stable; settings: c terminus: a fixed tail appended;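 note: lentivirally expressed fusions sorted by FACS into six bins by GFP to DsRed ratio, PSI derived from sequencing read proportions per bin multiplied by bin number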
property name: protein stability index
Just the number.

T14K    1.73
K12M    1.81
E16N    1.93
L19N    2.2
L11G    2.11
N9Q    1.96
D17A    1.89
C24E    1.69

Challenge: Quick check: protein stability index of S13K ?
Response given: 1.58

Challenge: And then E23Q , what is it?
Response given: 2.3

Challenge: And then K21R , what is it?
Response given: 3.02

Challenge: And then K21S , what is it?
Response given: 1.9

Challenge: And then L7Y , what is it?
Response given: 2.27

Challenge: And then L11F , what is it?
Response given: 2.47

Challenge: And then L7V , what is it?
Response given: 1.83

Challenge: And then S2L , what is it?
Response given: 3.19

Challenge: And then S13H , what is it?
Response given: 2.42

Challenge: And then D4E , what is it?
Response given: 1.94

Challenge: And then T14F , what is it?
Response given: 2.82

Challenge: And then F1W , what is it?
Response given: 4.39

Challenge: And then L7I , what is it?
Response given: 2.3

Challenge: And then Q22D , what is it?
Response given: 1.92

Challenge: And then V20K , what is it?
Response given: 2.46

Challenge: And then S18Y , what is it?
Response given: 2.41

Challenge: And then V20N , what is it?
Response given: 2.2

Challenge: And then R8P , what is it?
Response given: 2.67

Challenge: And then R8Y , what is it?
Response given: 2.44
